Entries and their IC50 values follow.
# test target: rat recombinant 11β-HSD1 (Rattus norvegicus (Rat), UniProt P16232)
# Sequence (P16232 whole entry): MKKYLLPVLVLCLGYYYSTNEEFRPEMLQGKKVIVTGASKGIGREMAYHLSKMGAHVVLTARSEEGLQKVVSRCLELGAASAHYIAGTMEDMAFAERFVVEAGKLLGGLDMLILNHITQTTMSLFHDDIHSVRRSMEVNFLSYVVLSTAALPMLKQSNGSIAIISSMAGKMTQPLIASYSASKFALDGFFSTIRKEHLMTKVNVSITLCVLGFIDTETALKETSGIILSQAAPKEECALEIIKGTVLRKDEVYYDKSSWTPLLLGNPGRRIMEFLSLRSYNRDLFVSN
# assay name: Measurement test for rat 11β-HSD1 inhibitory activity (HTRF cortisol detection)
# test conditions: rat recombinant 11β-HSD1, 200 nM cortisone, 40 μM NADPH, pH 6.6, room temperature 1 hour
property label: IC50

* Cn1c(-c2ccc(C(N)=O)cc2F)nnc1C(C)(C)Oc1c(F)cc(F)cc1F [Compound 12] | 0.182 µM
* CC(C)n1c(-c2ccc(C(N)=O)cc2)nnc1C(C)(C)Oc1c(F)cc(F)cc1F [Compound 9] | 0.026 µM
* Cn1c(-c2c[nH]nc2C(F)(F)F)nnc1C(C)(C)Oc1c(F)cc(F)cc1F [Compound 7] | 0.032 µM
* Cn1c(-c2ccccc2F)nnc1C(C)(C)Oc1c(F)cc(F)cc1F [Compound 6] | 0.322 µM
* Cn1c(-c2ccc(F)cc2Br)nnc1C(C)(C)Oc1c(F)cc(F)cc1F [Compound 1] | 0.035 µM
* Cl.Cn1c(-c2ccccc2Cl)nnc1C(C)(C)Oc1c(F)cc(Cl)cc1F [Compound 4] | 0.032 µM
* CC(C)(Oc1ccc(F)cc1F)c1nnc(-c2ccc(C(N)=O)cc2F)n1C1CC1 [Compound 11] | 0.064 µM
* Cn1c(-c2ccccc2Cl)nnc1C(C)(C)Oc1c(F)cc(F)cc1F [Compound 3] | 0.024 µM
* Cn1c(-c2ccc(F)cc2Cl)nnc1C(C)(C)Oc1c(F)cc(Cl)cc1F [Compound 5] | 0.263 µM
* CC(C)n1c(-c2ccc(C(N)=O)cc2)nnc1C(C)(C)Oc1c(F)cc(Cl)cc1F [Compound 13] | 0.068 µM
* CC(C)(Oc1ccc(F)cc1F)c1nnc(-c2ccc(C(N)=O)cc2Cl)n1C1CC1 [Compound 14] | 0.016 µM

----------
# Test system: spinal nerve ligation model
# assay name: Test of spinal nerve ligation model (von Frey hair test)
# Format: in vivo, rat
# test conditions: 0.3 mg/kg oral, 2 hours before evaluation; 50% withdrawal response threshold; pseudo-operation group = 100%, operated solvent group = 0%; SD rat; read-out: Improvement rate % (dose)
property label: inhibition in vivo at 0.3 mg/kg (%)

* Cn1c(-c2c[nH]nc2C(F)(F)F)nnc1C(C)(C)Oc1c(F)cc(F)cc1F [Compound 7] | 73
* Cn1c(-c2ccc(C(N)=O)cc2F)nnc1C(C)(C)Oc1c(F)cc(F)cc1F [Compound 12] | 54
* Cl.Cn1c(-c2ccccc2Cl)nnc1C(C)(C)Oc1c(F)cc(Cl)cc1F [Compound 4] | 85
* CC(C)n1c(-c2ccc(C(N)=O)cc2)nnc1C(C)(C)Oc1c(F)cc(Cl)cc1F [Compound 13] | 53
